Just for reference, ChEMBL document CHEMBL4602639 is where these values come from.

test system: Bacillus subtilis; assay: Antibacterial activity against penicillin-susceptible Bacillus subtilis ATCC 9372 by standard broth microdilution method; assay type: functional
For each of the compounds below, state its MIC.
Numbers only, in µg/mL.

Please report the recorded MIC for `CC[C@H]1OC(=O)[C@H](C)C(=O)[C@H](C)[C@@H](O[C@H]2O[C@@H](C)C[C@@H](N(C)C)[C@@H]2O)[C@](C)(OC)C[C@@H](C)C(=O)[C@H](C)[C@@H](OC(=O)NCCCn2cc(-c3ccccc3OC)nn2)[C@]1(C)O` .
2

Next:
Please report the recorded MIC for `CC[C@H]1OC(=O)[C@H](C)C(=O)[C@H](C)[C@@H](O[C@H]2O[C@@H](C)C[C@@H](N(C)C)[C@@H]2O)[C@](C)(OC)C[C@@H](C)C(=O)[C@H](C)[C@@H](OC(=O)NCCn2cc(-c3ccccc3Cl)nn2)[C@]1(C)O` .
4
